System: Nilaparvata lugens GSTs
Assay: Inhibition of total GSTs enzyme of Nilaparvata lugens (CDNB method)
Assay type: biochemical
Settings: 100 μM
We begin with a simple list: items and their reported 100 μM Inhibition rate %.
measured endpoint: 100 μM Inhibition rate % (%)

                                   compound  number
0  O=C(NNC(=O)c1cc(-c2ccccc2)nn1-c1ccccc1)c1ccccc1    8.16
1  N#Cc1ccc(OCC(=O)NNC(=O)c2cc(-c3ccccc3)nn2-c2ccccc2)cc1   10.00
2  O=C(NN1C(=O)NC2(CCCCC2)C1=O)c1cc(-c2ccccc2)nn1-c1ccccc1   −1.46
3  COc1cc(C(=O)NNC(=O)c2cc(-c3ccccc3)nn2-c2ccccc2)cc(OC)c1OC   −5.99
4  CC1CCC2(CC1)NC(=O)N(NC(=O)c1cc(-c3ccccc3)nn1-c1ccccc1)C2=O (stereo not drawn)   −1.00
5  CN(C)S(=O)(=O)c1ccc(C(=O)NNC(=O)c2cc(-c3ccccc3)nn2-c2ccccc2)cc1  −10.71
6  CC1(c2ccccc2)NC(=O)N(NC(=O)c2cc(-c3ccccc3)nn2-c2ccccc2)C1=O (stereo not drawn)   −3.30
7  COc1ccccc1CC(=O)NNC(=O)c1cc(-c2ccccc2)nn1-c1ccccc1   19.24
8  O=C(COc1ccccc1)NNC(=O)c1cc(-c2ccccc2)nn1-c1ccccc1   23.90
